Biological target: Mitogen-activated protein kinase 14 (Homo sapiens, UniProt Q16539)
Sequence (Q16539 whole entry): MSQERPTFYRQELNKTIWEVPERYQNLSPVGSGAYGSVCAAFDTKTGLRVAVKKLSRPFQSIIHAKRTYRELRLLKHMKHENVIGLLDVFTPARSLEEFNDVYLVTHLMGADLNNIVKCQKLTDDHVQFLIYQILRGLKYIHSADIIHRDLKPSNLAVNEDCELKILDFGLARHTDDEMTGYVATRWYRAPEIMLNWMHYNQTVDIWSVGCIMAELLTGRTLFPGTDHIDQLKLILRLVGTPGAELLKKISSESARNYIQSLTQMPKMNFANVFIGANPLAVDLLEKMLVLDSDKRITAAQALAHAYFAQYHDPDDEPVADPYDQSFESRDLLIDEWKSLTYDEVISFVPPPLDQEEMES
Assay: Selectivity interaction (Kinase panel (Invitrogen, enzymatic assay)) EUB0000623aCl MAPK14
pIC50: −log10 of the molar value.
observable: pIC50

**Query** Supply measured pIC50 of CC(C)(C)c1ccc(C(=O)Nc2cn3cc(-n4ccnc4)ccc3n2)cc1 in your reply.
**Result** < 4.70

* * *

Biological target: TGF-beta receptor type-1 (Homo sapiens)
Sequence (P36897 whole entry): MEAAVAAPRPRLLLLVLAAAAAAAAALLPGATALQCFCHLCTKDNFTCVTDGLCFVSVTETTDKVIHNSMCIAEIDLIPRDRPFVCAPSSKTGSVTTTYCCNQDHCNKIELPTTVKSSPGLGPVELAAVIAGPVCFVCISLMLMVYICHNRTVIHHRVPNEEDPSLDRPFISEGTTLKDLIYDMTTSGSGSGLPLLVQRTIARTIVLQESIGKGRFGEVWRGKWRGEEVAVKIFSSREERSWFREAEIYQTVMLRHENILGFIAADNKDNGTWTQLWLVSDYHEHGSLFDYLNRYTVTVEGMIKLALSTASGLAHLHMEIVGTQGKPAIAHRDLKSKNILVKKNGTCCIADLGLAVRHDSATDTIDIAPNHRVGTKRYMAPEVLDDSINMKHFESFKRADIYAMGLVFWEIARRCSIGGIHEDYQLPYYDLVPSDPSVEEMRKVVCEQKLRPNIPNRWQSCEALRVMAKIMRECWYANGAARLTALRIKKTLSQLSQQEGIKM
Test: Selectivity interaction (NanoBRET assay (HEK293T cells)) EUB0001465a TGFBR1
pIC50: −log10 of the molar value.
observable: pIC50

**Query** Supply measured pIC50 of COc1cc(-c2cncc(-c3ccc(N4CCN(C(C)C)CC4)cc3)c2C)cc(F)c1C(=O)N1CCCC1 in your reply.
**Result** < 8.00

* * *

Molecular target: PXR (NR1I2) (Homo sapiens, UniProt O75469)
Sequence (O75469 whole entry): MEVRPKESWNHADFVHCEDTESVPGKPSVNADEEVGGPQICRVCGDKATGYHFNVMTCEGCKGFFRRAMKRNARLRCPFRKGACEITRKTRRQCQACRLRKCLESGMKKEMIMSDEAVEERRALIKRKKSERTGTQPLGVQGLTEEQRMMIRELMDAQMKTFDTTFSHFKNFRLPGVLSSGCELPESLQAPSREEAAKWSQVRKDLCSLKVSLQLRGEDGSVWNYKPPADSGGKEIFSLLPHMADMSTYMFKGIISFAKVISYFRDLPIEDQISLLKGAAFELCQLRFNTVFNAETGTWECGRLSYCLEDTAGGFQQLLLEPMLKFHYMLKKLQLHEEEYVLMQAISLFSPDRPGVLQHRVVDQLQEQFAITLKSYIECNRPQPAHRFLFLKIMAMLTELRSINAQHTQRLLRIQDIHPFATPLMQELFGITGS
Assay: Selectivity interaction (Panel of kinases, GPCRs, ion channels and transporters (enzymatic assay)) EUB0000223bCl NR1I2
observable: XC50

**Query** Report the value of XC50 obtained on PXR (NR1I2) (Homo sapiens, UniProt O75469) for COc1cc(C(=O)N2CC[C@@H](O)[C@@H](N)C2)cc2nc(-c3cc4ccccc4n3CC3CC3)n(C)c12 .
**Result** > 50.1 µM

* * *

Target: ALK tyrosine kinase receptor (Homo sapiens, UniProt Q9UM73)
Sequence (Q9UM73 whole entry): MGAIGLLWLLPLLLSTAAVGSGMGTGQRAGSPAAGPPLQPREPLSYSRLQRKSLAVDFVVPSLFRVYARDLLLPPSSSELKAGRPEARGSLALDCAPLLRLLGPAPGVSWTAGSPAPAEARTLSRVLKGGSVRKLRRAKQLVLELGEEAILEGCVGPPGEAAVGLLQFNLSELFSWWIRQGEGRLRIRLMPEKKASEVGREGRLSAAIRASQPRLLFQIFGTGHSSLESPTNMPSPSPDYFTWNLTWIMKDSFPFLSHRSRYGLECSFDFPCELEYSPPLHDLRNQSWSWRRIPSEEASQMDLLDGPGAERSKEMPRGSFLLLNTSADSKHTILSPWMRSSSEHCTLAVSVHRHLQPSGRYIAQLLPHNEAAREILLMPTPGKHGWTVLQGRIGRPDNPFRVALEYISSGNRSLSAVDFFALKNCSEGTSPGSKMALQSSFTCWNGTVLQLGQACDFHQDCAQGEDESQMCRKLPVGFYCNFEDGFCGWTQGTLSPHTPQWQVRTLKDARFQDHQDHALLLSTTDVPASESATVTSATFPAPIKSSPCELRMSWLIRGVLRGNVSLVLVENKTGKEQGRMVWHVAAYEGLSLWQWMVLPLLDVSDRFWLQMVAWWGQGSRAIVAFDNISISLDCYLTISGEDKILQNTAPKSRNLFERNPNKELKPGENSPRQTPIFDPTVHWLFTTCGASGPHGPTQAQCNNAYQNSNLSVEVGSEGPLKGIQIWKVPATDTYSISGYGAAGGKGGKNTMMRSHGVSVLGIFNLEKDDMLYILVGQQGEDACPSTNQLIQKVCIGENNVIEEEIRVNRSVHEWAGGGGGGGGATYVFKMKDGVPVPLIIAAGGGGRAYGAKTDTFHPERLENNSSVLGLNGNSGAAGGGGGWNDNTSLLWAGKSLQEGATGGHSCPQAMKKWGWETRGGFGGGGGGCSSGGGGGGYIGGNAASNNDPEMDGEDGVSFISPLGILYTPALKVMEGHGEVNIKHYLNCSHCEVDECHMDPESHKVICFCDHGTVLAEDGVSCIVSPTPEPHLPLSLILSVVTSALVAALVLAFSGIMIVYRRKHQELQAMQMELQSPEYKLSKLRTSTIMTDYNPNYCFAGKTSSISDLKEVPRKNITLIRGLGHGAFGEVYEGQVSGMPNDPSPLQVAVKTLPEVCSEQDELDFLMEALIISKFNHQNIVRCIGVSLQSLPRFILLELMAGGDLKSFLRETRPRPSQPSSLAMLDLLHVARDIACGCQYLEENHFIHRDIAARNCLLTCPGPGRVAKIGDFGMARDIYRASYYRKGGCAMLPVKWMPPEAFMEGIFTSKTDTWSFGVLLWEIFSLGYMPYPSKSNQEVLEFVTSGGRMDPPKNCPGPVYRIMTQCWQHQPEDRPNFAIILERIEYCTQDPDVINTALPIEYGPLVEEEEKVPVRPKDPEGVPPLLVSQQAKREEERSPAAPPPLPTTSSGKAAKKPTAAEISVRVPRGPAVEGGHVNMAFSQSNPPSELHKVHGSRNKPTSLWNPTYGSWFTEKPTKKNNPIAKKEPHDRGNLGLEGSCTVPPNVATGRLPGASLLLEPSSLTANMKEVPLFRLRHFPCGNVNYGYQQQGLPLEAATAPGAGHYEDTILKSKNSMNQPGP
Experiment: Selectivity interaction (TR-FRET binding assay) EUB0000644a ALK
observable: pIC50
Would you please state pIC50, meaning minus log10 of the concentration in mol/L, as a bare number?

**Query** Supply measured pIC50 of CC[C@@H]1CN(C(=O)NCC(F)(F)F)C[C@@H]1c1cnc2cnc3[nH]ccc3n12 in your reply.
**Result** 5.26

* * *

Target: Mast/stem cell growth factor receptor Kit (Homo sapiens, UniProt P10721)
Sequence (P10721 whole entry): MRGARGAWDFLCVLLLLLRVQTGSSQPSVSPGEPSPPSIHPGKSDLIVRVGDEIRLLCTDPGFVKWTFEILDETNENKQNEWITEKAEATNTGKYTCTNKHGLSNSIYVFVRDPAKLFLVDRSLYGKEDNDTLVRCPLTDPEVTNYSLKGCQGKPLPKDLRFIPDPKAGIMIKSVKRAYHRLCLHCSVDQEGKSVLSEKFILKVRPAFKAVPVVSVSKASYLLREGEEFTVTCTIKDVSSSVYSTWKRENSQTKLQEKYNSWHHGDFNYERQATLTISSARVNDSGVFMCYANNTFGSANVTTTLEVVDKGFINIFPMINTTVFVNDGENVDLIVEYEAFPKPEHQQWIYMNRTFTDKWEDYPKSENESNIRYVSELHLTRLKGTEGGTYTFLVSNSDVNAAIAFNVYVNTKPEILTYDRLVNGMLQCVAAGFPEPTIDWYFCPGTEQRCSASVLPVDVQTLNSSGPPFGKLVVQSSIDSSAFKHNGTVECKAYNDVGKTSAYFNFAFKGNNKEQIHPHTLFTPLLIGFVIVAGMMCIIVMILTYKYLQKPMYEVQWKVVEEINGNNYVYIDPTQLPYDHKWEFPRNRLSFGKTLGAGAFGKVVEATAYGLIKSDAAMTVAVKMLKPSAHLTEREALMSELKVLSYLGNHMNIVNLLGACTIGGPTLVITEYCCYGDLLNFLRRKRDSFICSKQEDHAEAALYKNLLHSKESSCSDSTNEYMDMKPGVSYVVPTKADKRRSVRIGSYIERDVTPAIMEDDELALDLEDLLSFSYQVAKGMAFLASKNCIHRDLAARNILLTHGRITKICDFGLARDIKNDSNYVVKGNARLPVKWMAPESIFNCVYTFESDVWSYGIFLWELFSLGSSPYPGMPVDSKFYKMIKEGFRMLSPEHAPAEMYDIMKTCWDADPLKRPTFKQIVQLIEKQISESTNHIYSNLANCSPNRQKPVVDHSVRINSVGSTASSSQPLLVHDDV
observable: IC50

**Query** Report the value of IC50 obtained on Mast/stem cell growth factor receptor Kit (Homo sapiens, UniProt P10721) for CCc1cccc(CC)c1NC(=O)c1nn(C)c2c1CCc1cnc(Nc3ccc(C(=O)NC4CCN(C)CC4)cc3OC(F)(F)F)nc1-2 .
**Result** > 10 µM

* * *

Experiment: Selectivity interaction (Kinase panel (cellular selectivity, Bright-Glo proliferation assay in BaF3 Cell line, Promega)) EUB0000678a NTRK2
observable: pIC50
Would you please state pIC50, meaning minus log10 of the concentration in mol/L, as a bare number?

**Query** Supply measured pIC50 of CCN1CCN(c2ccc(Nc3cc(N(C)C(=O)Nc4c(Cl)c(OC)cc(OC)c4Cl)ncn3)cc2)CC1 in your reply.
**Result** 5.50

* * *

Target: Mitogen-activated protein kinase 14 (Homo sapiens)
Test: Selectivity interaction (Tracer competition assays (Reaction Biology)) EUB0001201a MAPK14
observable: IC50

**Query** Supply measured IC50 of CCc1ccc(-c2ncn(CC3(F)CCN(C)CC3)c2-c2ccnc3[nH]ccc23)nc1 in your reply.
**Result** > 3 µM

* * *

Target: Protein arginine N-methyltransferase 1 (Homo sapiens)
Sequence (Q99873 whole entry): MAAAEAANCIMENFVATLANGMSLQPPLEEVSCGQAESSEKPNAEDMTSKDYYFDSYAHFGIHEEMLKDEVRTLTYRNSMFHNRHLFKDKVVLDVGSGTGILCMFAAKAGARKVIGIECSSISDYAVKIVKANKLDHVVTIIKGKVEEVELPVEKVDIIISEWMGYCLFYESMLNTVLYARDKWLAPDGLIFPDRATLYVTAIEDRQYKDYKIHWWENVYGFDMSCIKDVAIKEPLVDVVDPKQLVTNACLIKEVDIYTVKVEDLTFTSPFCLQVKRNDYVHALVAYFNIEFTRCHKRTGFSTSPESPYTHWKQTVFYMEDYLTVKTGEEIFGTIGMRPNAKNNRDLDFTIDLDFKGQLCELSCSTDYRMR
Test: Selectivity interaction (Scintillation proximity assays) EUB0000255b PRMT1
pIC50: −log10 of the molar value.
observable: pIC50

**Query** Supply measured pIC50 of COCCN1CCC(c2cc(CN(C)C(=O)c3cccc(Oc4ccccc4)c3)ccn2)CC1 in your reply.
**Result** < 5.00
